Origin of values: paper PMC8571031

measured-on: sarco(endo)plasmic reticulum Ca2+-ATPase (SERCA1a isoform) (Oryctolagus cuniculus)
Construct: purified SERCA1a from rabbit skeletal muscle SR in reconstituted proteoliposomes; native SR vesicles for the EC50
Sequence (P04191 1-993): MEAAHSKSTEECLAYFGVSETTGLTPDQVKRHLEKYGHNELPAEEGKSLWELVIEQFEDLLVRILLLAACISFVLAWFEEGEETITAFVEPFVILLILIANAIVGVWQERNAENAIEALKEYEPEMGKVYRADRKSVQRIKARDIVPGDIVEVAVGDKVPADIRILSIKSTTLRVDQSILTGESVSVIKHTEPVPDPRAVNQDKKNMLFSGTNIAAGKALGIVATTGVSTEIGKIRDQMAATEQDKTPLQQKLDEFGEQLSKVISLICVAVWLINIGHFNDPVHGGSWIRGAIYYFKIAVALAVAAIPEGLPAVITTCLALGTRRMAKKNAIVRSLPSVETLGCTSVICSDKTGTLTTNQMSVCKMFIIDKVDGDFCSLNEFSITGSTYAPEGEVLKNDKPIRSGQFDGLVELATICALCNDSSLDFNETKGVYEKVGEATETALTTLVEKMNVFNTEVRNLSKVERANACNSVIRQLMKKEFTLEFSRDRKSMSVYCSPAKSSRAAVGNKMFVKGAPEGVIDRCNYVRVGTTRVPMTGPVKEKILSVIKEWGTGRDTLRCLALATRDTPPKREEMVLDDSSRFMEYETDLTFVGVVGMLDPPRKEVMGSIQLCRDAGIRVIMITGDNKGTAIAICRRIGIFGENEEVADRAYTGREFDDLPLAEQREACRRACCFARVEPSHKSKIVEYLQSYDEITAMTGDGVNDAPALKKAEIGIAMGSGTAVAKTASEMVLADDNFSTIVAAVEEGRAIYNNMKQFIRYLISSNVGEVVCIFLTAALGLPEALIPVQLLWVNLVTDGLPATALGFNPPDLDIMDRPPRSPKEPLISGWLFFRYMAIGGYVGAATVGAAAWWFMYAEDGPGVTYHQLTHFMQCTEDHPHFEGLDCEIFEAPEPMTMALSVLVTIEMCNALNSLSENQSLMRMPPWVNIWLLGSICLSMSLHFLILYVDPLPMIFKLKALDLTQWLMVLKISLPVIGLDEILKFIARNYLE
assay-text: SSM electrical measurement of ATP-induced charge translocation (activation); EC50 on native SR vesicles, direct action confirmed with purified SERCA1a proteoliposomes
measurement-label: EC50 (µM)
Only the number, expressed in µM, is required.

Input line: Data request, read-out EC50, for `Cc1ccc2cccc(NC(=O)c3ccc(OC(C)C)cc3)c2n1`
Output line: 6
